Test system: 377384-186-R-J1-PDC complex spheroid viability
Assay: Anticancer human tumor 377384-186-R-J1-PDC patient-derived pancreatic carcinoma cell line growth inhibition [CLK]; active means viability on the fitted dose curve at most 10% of control; inactive means the rest
Conditions: second compound 0.0316 µM; first compound 0.00949 µM
// allowed return values: 1 (yes) (active), 0 (no) (inactive)

Below, 3 compounds whose answers are already recorded.
CC(C)CC(NC(=O)C(Cc1ccccc1)NC(=O)c1cnccn1)B(O)O (stereo unspecified) + CNC(=O)c1ccc(Nc2nc(OC3CCCC3)c3c(-c4ccc5nc(C)oc5c4)c[nH]c3n2)c(OC)c1: 1 (yes)
NC(=O)C(=Cn1cnc(-c2cc(C(F)(F)F)cc(C(F)(F)F)c2)n1)c1cncnc1 + CNC(=O)c1ccc(Nc2nc(OC3CCCC3)c3c(-c4ccc5nc(C)oc5c4)c[nH]c3n2)c(OC)c1: 0 (no)
C=CC(=O)Nc1cc(Nc2nccc(-c3cn(C)c4ccccc34)n2)c(OC)cc1N(C)CCN(C)C + CNC(=O)c1ccc(Nc2nc(OC3CCCC3)c3c(-c4ccc5nc(C)oc5c4)c[nH]c3n2)c(OC)c1: 0 (no)

Req: Entry CC(C)CC(NC(=O)C(Cc1ccccc1)NC(=O)c1cnccn1)B(O)O (stereo unspecified) + CN1CCN(c2cc(C(=O)Nc3cc4cc(-c5cnn(C)c5)ccc4cn3)ccn2)CC1 : call = ?
Resp: 1 (yes)

Req: Entry C=CC(=O)Nc1cc(Nc2nccc(-c3cn(C)c4ccccc34)n2)c(OC)cc1N(C)CCN(C)C + CN1CCN(c2cc(C(=O)Nc3cc4cc(-c5cnn(C)c5)ccc4cn3)ccn2)CC1 : call = ?
Resp: 0 (no)

Req: Entry NC(=O)C(=Cn1cnc(-c2cc(C(F)(F)F)cc(C(F)(F)F)c2)n1)c1cncnc1 + CN1CCN(c2cc(C(=O)Nc3cc4cc(-c5cnn(C)c5)ccc4cn3)ccn2)CC1 : call = ?
Resp: 0 (no)

====

Test system: 377384-186-R-J1-PDC complex spheroid viability
Assay: Anticancer human tumor 377384-186-R-J1-PDC cell line growth inhibition [CLK]; active means viability on the fitted dose curve at most 10% of control; inactive means the rest;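 further: luminescence signal used as a stand-in for viable cells; spheroids exposed to agents for 7 days before reading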
Conditions: second compound 10 µM; first compound 3.16 µM
// allowed return values: 1 (active), 0 (inactive)

Below, 3 molecules whose answers are already recorded.
COC1C=CCC(C)C(C)S(=O)(=O)NC(=O)c2ccc3c(c2)N(CC2CCC21)CC1(CCCc2cc(Cl)ccc21)CO3 (stereo not given) + CNC(=O)c1ccc(Nc2nc(OC3CCCC3)c3c(-c4ccc5nc(C)oc5c4)c[nH]c3n2)c(OC)c1: 0
O=C(c1cc(Cc2n[nH]c(=O)c3ccccc23)ccc1F)N1CCN(C(=O)C2CC2)CC1 + CNC(=O)c1ccc(Nc2nc(OC3CCCC3)c3c(-c4ccc5nc(C)oc5c4)c[nH]c3n2)c(OC)c1: 0
CC(Nc1ccc2c(c1)OCCn1cc(N3C(=O)OCC3C(F)F)nc1-2)C(N)=O (stereo not given) + CNC(=O)c1ccc(Nc2nc(OC3CCCC3)c3c(-c4ccc5nc(C)oc5c4)c[nH]c3n2)c(OC)c1: 0

Req: Entry C=C(F)C(=O)N1CCN(c2nc(OCC3CCCN3C)nc3c2CCN(c2cccc4cccc(Cl)c24)C3)CC1CC#N (stereo not given) + CN1CCN(c2cc(C(=O)Nc3cc4cc(-c5cnn(C)c5)ccc4cn3)ccn2)CC1 : call = ?
Resp: 1

Req: Entry Nc1ccccc1NC(=O)c1ccc(CNC(=O)OCc2cccnc2)cc1 + CN1CCN(c2cc(C(=O)Nc3cc4cc(-c5cnn(C)c5)ccc4cn3)ccn2)CC1 : call = ?
Resp: 1

====

System: 377384-186-R-J1-PDC complex spheroid viability
Experiment: Anticancer human tumor 377384-186-R-J1-PDC cell line growth inhibition [CLK]; active = viability on the fitted dose curve at most 10% of control; inactive = the rest;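 further: luminescence signal used as a stand-in for viable cells; spheroids exposed to agents for 7 days before reading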
Conditions: second compound 0.1 µM; first compound 0.3 µM
// allowed return values: YES (active), NO (inactive)

Below, 2 molecules whose answers are already recorded.
CC(C)CC(NC(=O)C(Cc1ccccc1)NC(=O)c1cnccn1)B(O)O (stereo not drawn) + CN1CCN(c2cc(C(=O)Nc3cc4cc(-c5cnn(C)c5)ccc4cn3)ccn2)CC1: YES
C=CC(=O)Nc1cc(Nc2nccc(-c3cn(C)c4ccccc34)n2)c(OC)cc1N(C)CCN(C)C + CN1CCN(c2cc(C(=O)Nc3cc4cc(-c5cnn(C)c5)ccc4cn3)ccn2)CC1: NO

Here is another molecule to look at.
Req: Entry CC(C)CC(NC(=O)C(Cc1ccccc1)NC(=O)c1cnccn1)B(O)O (stereo not drawn) + CNC(=O)c1ccc(Nc2nc(OC3CCCC3)c3c(-c4ccc5nc(C)oc5c4)c[nH]c3n2)c(OC)c1 : call = ?
Resp: YES

====

Test system: 377384-186-R-J1-PDC complex spheroid viability
Experiment: Anticancer human tumor 377384-186-R-J1-PDC cell line growth inhibition [CLK];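 further: luminescence signal used as a stand-in for viable cells; spheroids exposed to agents for 7 days before reading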
Conditions: second compound 0.316 µM; first compound 10 µM; stronger effect = lower value
Param label: returns label 1 when viability, T/C < 20%, returns label 0 otherwise, including exact equality.

Req: Input COc1ccc([C@@H](O)c2cc(-c3ncnc4cc(N5CCOCC5)ccc34)c(F)cc2Cl)nn1 + CNC(=O)c1ccc(Nc2nc(OC3CCCC3)c3c(-c4ccc5nc(C)oc5c4)c[nH]c3n2)c(OC)c1 ; condition: viability, T/C strictly below 20%. Does it hold?
Resp: label 1

Req: Input O=c1[nH]cc(F)c(=O)[nH]1 + CN1CCN(c2cc(C(=O)Nc3cc4cc(-c5cnn(C)c5)ccc4cn3)ccn2)CC1 ; condition: viability, T/C strictly below 20%. Does it hold?
Resp: label 0

Req: Input C=C(F)C(=O)N1CCN(c2nc(OCC3CCCN3C)nc3c2CCN(c2cccc4cccc(Cl)c24)C3)CC1CC#N (centres undefined) + CN1CCN(c2cc(C(=O)Nc3cc4cc(-c5cnn(C)c5)ccc4cn3)ccn2)CC1 ; condition: viability, T/C strictly below 20%. Does it hold?
Resp: label 1

Req: Input Nc1ccn(C2OC(CO)C(O)C2(F)F)c(=O)n1 (centres undefined) + CN1CCN(c2cc(C(=O)Nc3cc4cc(-c5cnn(C)c5)ccc4cn3)ccn2)CC1 ; condition: viability, T/C strictly below 20%. Does it hold?
Resp: label 1

Req: Input CC1(C)CCC(CN2CCN(c3ccc(C(=O)NS(=O)(=O)c4ccc(NCC5CCOCC5)c([N+](=O)[O-])c4)c(Oc4cnc5[nH]ccc5c4)c3)CC2)=C(c2ccc(Cl)cc2)C1 + CNC(=O)c1ccc(Nc2nc(OC3CCCC3)c3c(-c4ccc5nc(C)oc5c4)c[nH]c3n2)c(OC)c1 ; condition: viability, T/C strictly below 20%. Does it hold?
Resp: label 0

Req: Input Nc1ccccc1NC(=O)c1ccc(CNC(=O)OCc2cccnc2)cc1 + CNC(=O)c1ccc(Nc2nc(OC3CCCC3)c3c(-c4ccc5nc(C)oc5c4)c[nH]c3n2)c(OC)c1 ; condition: viability, T/C strictly below 20%. Does it hold?
Resp: label 1

Req: Input CC1COCCN1c1cc(C2(S(C)(=N)=O)CC2)nc(-c2ccnc3[nH]ccc23)n1 (centres undefined) + CN1CCN(c2cc(C(=O)Nc3cc4cc(-c5cnn(C)c5)ccc4cn3)ccn2)CC1 ; condition: viability, T/C strictly below 20%. Does it hold?
Resp: label 1

Req: Input Nc1ccccc1NC(=O)c1ccc(CNC(=O)OCc2cccnc2)cc1 + CN1CCN(c2cc(C(=O)Nc3cc4cc(-c5cnn(C)c5)ccc4cn3)ccn2)CC1 ; condition: viability, T/C strictly below 20%. Does it hold?
Resp: label 1

====

Recorded measurements of viability, T/C, one per entry
Tested on: 377384-186-R-J1-PDC complex spheroid viability
Experiment: Anticancer human tumor 377384-186-R-J1-PDC cell line growth inhibition [CLK];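 further: luminescence signal used as a stand-in for viable cells; spheroids exposed to agents for 7 days before reading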
Settings: second compound 0.0316 µM; first compound 10 µM; stronger effect = lower value
Number in %, nothing else.

CC(CO)NC(=O)c1cc(-c2ccc(Cl)cc2)nn(-c2cnn(C)c2)c1=O (stereo not given) + CNC(=O)c1ccc(Nc2nc(OC3CCCC3)c3c(-c4ccc5nc(C)oc5c4)c[nH]c3n2)c(OC)c1: 47.1
C=C(F)C(=O)N1CCN(c2nc(OCC3CCCN3C)nc3c2CCN(c2cccc4cccc(Cl)c24)C3)CC1CC#N (stereo not given) + CNC(=O)c1ccc(Nc2nc(OC3CCCC3)c3c(-c4ccc5nc(C)oc5c4)c[nH]c3n2)c(OC)c1: 0.88
C#Cc1c(F)ccc2cc(O)cc(-c3ncc4c(N5CC6CCC(C5)N6)nc(OCC56CCCN5CC(F)C6)nc4c3F)c12 (stereo not given) + CNC(=O)c1ccc(Nc2nc(OC3CCCC3)c3c(-c4ccc5nc(C)oc5c4)c[nH]c3n2)c(OC)c1: 1.98
CC(=O)O[C@H]1C(=O)[C@@]2(C)[C@H]([C@H](OC(=O)c3ccccc3)[C@]3(O)C[C@H](OC(=O)[C@H](O)[C@@H](NC(=O)c4ccccc4)c4ccccc4)C(C)=C1C3(C)C)[C@]1(OC(C)=O)CO[C@@H]1C[C@@H]2O + CNC(=O)c1ccc(Nc2nc(OC3CCCC3)c3c(-c4ccc5nc(C)oc5c4)c[nH]c3n2)c(OC)c1: 20.1
Nc1ccn(C2OC(CO)C(O)C2(F)F)c(=O)n1 (stereo not given) + CN1CCN(c2cc(C(=O)Nc3cc4cc(-c5cnn(C)c5)ccc4cn3)ccn2)CC1: 2.28
CC1COCCN1c1cc(C2(S(C)(=N)=O)CC2)nc(-c2ccnc3[nH]ccc23)n1 (stereo not given) + CNC(=O)c1ccc(Nc2nc(OC3CCCC3)c3c(-c4ccc5nc(C)oc5c4)c[nH]c3n2)c(OC)c1: 17.4

Req: Query: viability, T/C; subject: C=CC(=O)N1CCN(c2nc(=O)n(-c3c(C)ccnc3C(C)C)c3nc(-c4c(O)cccc4F)c(F)cc23)C(C)C1 (stereo not given) + CN1CCN(c2cc(C(=O)Nc3cc4cc(-c5cnn(C)c5)ccc4cn3)ccn2)CC1
Resp: 101

Req: Query: viability, T/C; subject: Nc1ccccc1NC(=O)c1ccc(CNC(=O)OCc2cccnc2)cc1 + CN1CCN(c2cc(C(=O)Nc3cc4cc(-c5cnn(C)c5)ccc4cn3)ccn2)CC1
Resp: 1.31

Req: Query: viability, T/C; subject: CC(Nc1ccc2c(c1)OCCn1cc(N3C(=O)OCC3C(F)F)nc1-2)C(N)=O (stereo not given) + CN1CCN(c2cc(C(=O)Nc3cc4cc(-c5cnn(C)c5)ccc4cn3)ccn2)CC1
Resp: 43.4

Req: Query: viability, T/C; subject: COC1C=CCC(C)C(C)S(=O)(=O)NC(=O)c2ccc3c(c2)N(CC2CCC21)CC1(CCCc2cc(Cl)ccc21)CO3 (stereo not given) + CN1CCN(c2cc(C(=O)Nc3cc4cc(-c5cnn(C)c5)ccc4cn3)ccn2)CC1
Resp: 11.8
